Reference source for all entries: patent US20250099420A1

Field: Lipophilic Efficiency (logP). Provide a value for each of the compounds that follow.
- System: parental HEK cells
- assay_method_text: HEK parental Agonist Counterscreen Assay (non-transfected cells)
- Type: cell-based
- condition_context: HEK Agonist Activity section
The response must contain the number and no unit.

Recorded Lipophilic Efficiency (logP) (compound "COc1ccc(CCC(=O)Nc2ccc(-c3cn[nH]c3)c(OC)c2)cc1" ): 1.73

Recorded Lipophilic Efficiency (logP) (compound Cn1c(CCc2ccc(F)cc2F)nnc1C1=C(O)N=C2CC=CC21 (stereo not shown) ): 0.70

Recorded Lipophilic Efficiency (logP) (compound Cc1[nH]ncc1-c1ccc(NC(=O)C2COc3ccc(F)cc3C2)c(OCCN2CCOCC2)c1.O=C(O)C(F)(F)F.O=C(O)C(F)(F)F (stereo not shown) ): 1.87

Recorded Lipophilic Efficiency (logP) (compound "O=C(Cn1ncn2cccc2c1=O)NCCc1ccc(Cl)cc1" ): 3.41

Recorded Lipophilic Efficiency (logP) (compound CN(CCC(=O)NCC1Cc2cccc(-c3ccccn3)c2O1)C1CCS(=O)(=O)C1 (stereo not shown) ): 4.19

Recorded Lipophilic Efficiency (logP) (compound "O=C(CCc1nc2ccccc2s1)NNC(=O)C1CCCCC1" ): 2.04

Recorded Lipophilic Efficiency (logP) (compound O=C(C1CC1)N1CCc2cc(S(=O)(=O)NCC3COc4ccccc4O3)ccc21 (stereo not shown) ): 2.75

Recorded Lipophilic Efficiency (logP) (compound "Cl.Cl.Nc1[nH]ncc1-c1ccc(NC(=O)[C@H](N)Cc2cccc(F)c2)cc1" ): 2.98

Recorded Lipophilic Efficiency (logP) (compound "COc1cccc(CNC(=O)Nc2ccc(-c3ccncc3)cc2)c1.O=C(O)C(F)(F)F" ): 1.75

Recorded Lipophilic Efficiency (logP) (compound "COc1ccc(CCC(=O)Nc2ccc(OC)c(N3CCCC3=O)c2)cc1" ): 2.35

Recorded Lipophilic Efficiency (logP) (compound "O=C(COc1ccc2ccccc2c1)NNC(=O)Cc1cccc2ccccc12" ): 1.14

Recorded Lipophilic Efficiency (logP) (compound "CSc1ccc(CCNC(=O)Cn2ncc3c(=O)oc4ccccc4c32)cc1" ): 2.04

Recorded Lipophilic Efficiency (logP) (compound "CCCc1cc(=O)n2[nH]c(NCc3ccccc3F)nc2n1" ): 1.65

Recorded Lipophilic Efficiency (logP) (compound C=CCC(O)(CC=C)C(C)NC(=O)CCC1(Cc2ccc3ccccc3c2)CCC(=O)N1 (stereo not shown) ): 1.27

Recorded Lipophilic Efficiency (logP) (compound "O=C(Cn1nnc2c1-c1ccccc1OC2)Nc1cccc(Cl)c1" ): 1.77

Recorded Lipophilic Efficiency (logP) (compound "CCCC1(CCC)NC(=O)N(CC(=O)NCc2ccc(Cl)cc2)C1=O" ): 1.88

Recorded Lipophilic Efficiency (logP) (compound "Cc1ccc(NC(=O)Cn2ncc3c2-c2ccccc2OC3)cc1F" ): 1.72

Recorded Lipophilic Efficiency (logP) (compound COc1ccc(C)cc1NC(=O)NNC(=O)C(C)Oc1ccc(F)cc1Cl (stereo not shown) ): 1.38

Recorded Lipophilic Efficiency (logP) (compound "O=C1CCCCN1c1cccc(NS(=O)(=O)c2cc(Cl)ccc2Cl)c1" ): 1.41

----------
- target: GPR139 (Homo sapiens)
- Sequence (Q6DWJ6 1-353): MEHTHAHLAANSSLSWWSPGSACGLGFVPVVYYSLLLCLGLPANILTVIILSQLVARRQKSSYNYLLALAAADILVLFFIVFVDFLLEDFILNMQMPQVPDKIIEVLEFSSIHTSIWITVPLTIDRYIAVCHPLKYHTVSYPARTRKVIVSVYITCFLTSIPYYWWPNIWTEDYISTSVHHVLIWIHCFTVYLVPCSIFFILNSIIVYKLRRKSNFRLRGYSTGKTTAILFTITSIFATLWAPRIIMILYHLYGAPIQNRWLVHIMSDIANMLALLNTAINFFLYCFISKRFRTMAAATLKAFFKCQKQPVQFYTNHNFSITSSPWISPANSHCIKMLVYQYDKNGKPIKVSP
- assay_method_text: GPR139 Agonist titration / agonist counterscreen assay (calcium detection, HEK-GPR139 cells)
- Assay type: cell-based
- Parameters: expressed in transfected cells; host or cells: HEK Aequorin cells, Maxcyte transient transfection
- condition_context: GPR139 Agonist Activity
attribute_measured: Lipophilic Efficiency (logP)
The response must contain the number and no unit.

I looked up "COC(=O)c1ccc(CSc2nnc(N)s2)cc1" and its Lipophilic Efficiency (logP) for GPR139 (Homo sapiens) was 4.00

I looked up "COc1ccc(NC(=O)NC(O)(O)c2cccc(C(C)=O)c2)cc1" and its Lipophilic Efficiency (logP) for GPR139 (Homo sapiens) was 2.10

I looked up O=C(O)CC1CCCC1c1ccccc1 (centres unmarked) and its Lipophilic Efficiency (logP) for GPR139 (Homo sapiens) was 2.98

I looked up O=C(Cn1ncc2c1-c1ccccc1OC2)Nc1ccc(Cl)cc1 [SR-01000098980] and its Lipophilic Efficiency (logP) for GPR139 (Homo sapiens) was 3.09

I looked up "CC(C)CCNC(=O)CN1CCN(Cc2ccc(F)cc2Cl)C1=O" and its Lipophilic Efficiency (logP) for GPR139 (Homo sapiens) was 4.17

I looked up "CS(=O)(=O)c1cccc(C(=O)NCCCN2CCc3ccccc32)c1" and its Lipophilic Efficiency (logP) for GPR139 (Homo sapiens) was 4.28

I looked up "COc1cccc(CNC(=O)Nc2ccc(-c3ccncc3)cc2)c1.O=C(O)C(F)(F)F" and its Lipophilic Efficiency (logP) for GPR139 (Homo sapiens) was 3.29

I looked up "CCCc1ccc(NC(=O)CCc2nc3c(c(=O)n2C)CCC3)cc1" and its Lipophilic Efficiency (logP) for GPR139 (Homo sapiens) was 3.33

I looked up Cn1c(CCc2ccc(F)cc2F)nnc1C1=C(O)N=C2CC=CC21 (centres unmarked) and its Lipophilic Efficiency (logP) for GPR139 (Homo sapiens) was 2.32

I looked up "CCOC(=O)N1CCC2=C(CC(NC(=O)Cc3cccc4ccccc34)=C2C(C)=O)C1" and its Lipophilic Efficiency (logP) for GPR139 (Homo sapiens) was 1.89

I looked up Cc1ccc(NC(=O)CSC2=C(C#N)C(c3ccc(F)cc3)CC(=O)N2)c(C)c1 (centres unmarked) and its Lipophilic Efficiency (logP) for GPR139 (Homo sapiens) was 1.82

I looked up O=C(CN1C(=O)NC2(CCc3ccccc3C2)C1=O)Nc1cccc2ccccc12 (centres unmarked) and its Lipophilic Efficiency (logP) for GPR139 (Homo sapiens) was 2.77

I looked up CCC(=O)NNC(=O)C(C)Oc1ccc(Cl)cc1Cl (centres unmarked) and its Lipophilic Efficiency (logP) for GPR139 (Homo sapiens) was 3.86

I looked up "O=C(CCS(=O)(=O)c1cccc2nonc12)NCCc1ccc(Cl)cc1" and its Lipophilic Efficiency (logP) for GPR139 (Homo sapiens) was 3.46

I looked up "CCCN1C(=O)CCc2cc(NC(=O)NCCc3ccc(OC)cc3)ccc21" and its Lipophilic Efficiency (logP) for GPR139 (Homo sapiens) was 2.98

I looked up Cc1ccccc1-c1nc(C[S+]([O-])CC(=O)NC(C)CCc2ccccc2)c(C)o1 (centres unmarked) and its Lipophilic Efficiency (logP) for GPR139 (Homo sapiens) was 2.68

I looked up Cc1c(Cl)c([N+](=O)[O-])nn1CC(=O)NC(C)COc1ccccc1 (centres unmarked) and its Lipophilic Efficiency (logP) for GPR139 (Homo sapiens) was 3.49

I looked up "Cc1cc(=O)n2nc(NCc3ccccc3Cl)nc2[nH]1" and its Lipophilic Efficiency (logP) for GPR139 (Homo sapiens) was 3.22

I looked up CCOC(=O)C1CCN(C(=O)C2CC(Cc3cccc4ccccc34)=NO2)CC1 (centres unmarked) and its Lipophilic Efficiency (logP) for GPR139 (Homo sapiens) was 2.73

I looked up "Cc1ccc(CCC(=O)NNC(=O)CCc2ccccc2)c(Br)c1" and its Lipophilic Efficiency (logP) for GPR139 (Homo sapiens) was 2.69
